Measured glycan array binding signal (z-score) of individual entries
target: Glc(a1-4)Glc; experiment: glycan array binding signal (z-score within array); higher = stronger binding; settings: glycan notation: IUPAC condensed, linker removed
Many of the other results were omitted from the sample, so the strongest signals are more common in it than they were.
// response body must contain only the number

Could you share which glycan array binding signal (z-score) value was measured for PA-IL (Pseudomonas aeruginosa) (protein) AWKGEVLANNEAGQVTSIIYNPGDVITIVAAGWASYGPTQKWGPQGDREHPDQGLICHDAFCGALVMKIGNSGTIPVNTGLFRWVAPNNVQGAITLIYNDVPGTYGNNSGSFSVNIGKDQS ?
-0.365

What do you get for FaeGac (Escherichia coli) (protein) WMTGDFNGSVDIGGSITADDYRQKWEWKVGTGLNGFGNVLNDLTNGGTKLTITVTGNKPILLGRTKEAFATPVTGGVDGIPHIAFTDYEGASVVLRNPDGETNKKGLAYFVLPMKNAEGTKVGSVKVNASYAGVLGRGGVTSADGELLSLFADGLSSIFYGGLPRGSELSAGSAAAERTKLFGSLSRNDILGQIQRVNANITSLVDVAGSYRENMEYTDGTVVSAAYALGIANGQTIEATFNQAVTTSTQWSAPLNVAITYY ?
10.9

What do you get for Pbx1CASH domain (Cryptococcus neoformans) (protein) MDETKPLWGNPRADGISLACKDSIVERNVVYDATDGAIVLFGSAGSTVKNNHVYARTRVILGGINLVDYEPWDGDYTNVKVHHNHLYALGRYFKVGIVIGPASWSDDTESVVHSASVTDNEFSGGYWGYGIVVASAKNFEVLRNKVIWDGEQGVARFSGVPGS ?
-0.667
